The entries below come with measured Beta oxidation values attached.
system: β-Oxidation of (1-14C) palmitic acid in cells; assay: β-Oxidation assay, isolation of acid soluble products; format: cell-based; design: unit not given here; settings: 10 ug/ml
property: Beta oxidation

>>> print(df.to_string())
                                   molecule  numeric_result
0  CCCCCCCCC1OC(=O)C(OCc2ccccc2)=C1C(=O)OCC (stereo not shown)              74
1  CCCCCCCCC1OC(=O)C(OCC(=O)OCC)=C1C(=O)OCC (stereo not shown)              79
2  C=CCOC1=C(C(=O)OCC)C(CCCCCCCC)OC1=O (stereo not shown)             101
3  CCCCCCCCC1OC(=O)C(OC)=C1C(=O)OCC (stereo not shown)             104

----------
system: β-Oxidation of (1-14C) palmitic acid in cells; test: β-Oxidation assay, isolation of acid soluble products; format: cell-based; design: unit not given here; conditions: 1.25 ug/ml
A collection of compounds and their measured Beta oxidation
property: Beta oxidation

In [3]: df
Out[3]:
                                   compound                              assay_system        property  result
0  CCCCCCCCC1OC(=O)C(OCC(=O)OCC)=C1C(=O)OCC (stereo not shown)  β-Oxidation of (1-14C) palmitic acid in cells  Beta oxidation     113
1  CCCCCCCCC1OC(=O)C(OCc2ccccc2)=C1C(=O)OCC (stereo not shown)  β-Oxidation of (1-14C) palmitic acid in cells  Beta oxidation     108
2  C=CCOC1=C(C(=O)OCC)C(CCCCCCCC)OC1=O (stereo not shown)  β-Oxidation of (1-14C) palmitic acid in cells  Beta oxidation     118
3  CCCCCCCCC1OC(=O)C(OC)=C1C(=O)OCC (stereo not shown)  β-Oxidation of (1-14C) palmitic acid in cells  Beta oxidation     112

----------
system: OV; experiment: XTT cytotoxicity assay (OV); assay type: cell-based; details: abbreviation not defined
property: IC50 (µg/mL)

>>> df
                                   compound  assay_system  unit_abbreviation  inequality_symbol  numeric_result
0  CCCCCCCCC1OC(=O)C(OCc2ccccc2)=C1C(=O)OCC (stereo not shown)            OV              µg/mL                  =            33.9
1  C=CCOC1=C(C(=O)OCC)C(CCCCCCCC)OC1=O (stereo not shown)            OV              µg/mL                  >              80
2  CCCCC1OC(=O)C(O)=C1C(=O)OCC (stereo not shown)            OV              µg/mL                  =            66.1
3  CCCCCCCCC1OC(=O)C(OCC(=O)OCC)=C1C(=O)OCC (stereo not shown)            OV              µg/mL                  =            24.1
4  CCCCCCCCC1OC(=O)C(OC)=C1C(=O)OCC (stereo not shown)            OV              µg/mL                  =             9.2
5  CCCCCCCCC1OC(=O)C(OC(=O)OCC)=C1C(=O)OCC (stereo not shown)            OV              µg/mL                  =            13.8
6  CCCCCCCCC1OC(=O)C(=O)C1C(=O)OCC (stereo not shown)            OV              µg/mL                  =            18.4
